All figures here come from paper PMC8533219.

assay: ABTS radical scavenging assay; conditions: IC50 > 1000 μM = inactive
Answer each item with its documented IC50.

Ask | Record request: IC50 value, item C=CC(C)(C)c1cc(O)c2oc3c4c(ccc3c(=O)c2c1O)[C@H](O)[C@H](O)C(C)(C)O4 [Compound 5, garcigerin A]
Reply | 6.5 µM

Ask | Let us now turn to C=CC(C)(C)c1cc(O)c(O)c2c(=O)c3cc4c(c(O)c3oc12)OC(C)(C)C=C4 [Compound 2, subelliptenone H]
Reply | 2.7 µM

Ask | Let us now turn to C=CC(C)(C)c1cc(O)c2oc3c(O)cccc3c(=O)c2c1O [Compound 3, 12b-hydroxy-des-D-garcigerrin A]
Reply | 0.05 µM

Ask | Let us now turn to C=CC(C)(C)c1cc(O)c2oc3c4c(ccc3c(=O)c2c1O)C=CC(C)(C)O4 [Compound 4, garciniaxanthone B]
Reply | 7.9 µM

Ask | Let us now turn to COc1cc(C)c2c(=O)c3c(O)cc(OC)cc3oc2c1 [Compound 1, lichexanthone]
Reply | > 1000 µM

Ask | Let us now turn to O=c1c(O)c(-c2ccc(O)c(O)c2)oc2cc(O)cc(O)c12 [Quercetin, reference compound]
Reply | 0.17 µM

Ask | Let us now turn to O=C(O)c1cc(O)c(O)c(O)c1 [Gallic acid, reference compound]
Reply | 0.7 µM

###

target: rat intestinal α-glucosidase; assay: Rat intestinal α-glucosidase inhibitory activity; assay type: biochemical; settings: substrate sucrose; IC50 > 1000 μM = inactive; read-out: α-Glucosidase Sucrose IC50
Observed Property: pIC50
Scale: negative log10 of molar concentration, which is what pIC50 denotes.

Ask | Kindly state the measured pIC50 obtained for C=CC(C)(C)c1cc(O)c(O)c2c(=O)c3cc4c(c(O)c3oc12)OC(C)(C)C=C4 with rat intestinal α-glucosidase.
Reply | 4.36

Ask | Let us now turn to C=CC(C)(C)c1cc(O)c2oc3c4c(ccc3c(=O)c2c1O)C=CC(C)(C)O4
Reply | 4.12

Ask | Let us now turn to C=CC(C)(C)c1cc(O)c2oc3c4c(ccc3c(=O)c2c1O)[C@H](O)[C@H](O)C(C)(C)O4
Reply | 4.43

Ask | Let us now turn to C=CC(C)(C)c1cc(O)c2oc3c(O)cccc3c(=O)c2c1O [Compound 3, 12b-hydroxy-des-D-garcigerrin A]
Reply | 4.10

Ask | Let us now turn to C[C@H]1O[C@H](O[C@H]2[C@H](O)[C@@H](O)[C@@H](O[C@H]3[C@H](O)[C@@H](O)C(O)O[C@@H]3CO)O[C@@H]2CO)[C@H](O)[C@@H](O)[C@@H]1N[C@H]1C=C(CO)[C@@H](O)[C@H](O)[C@H]1O (stereo partly drawn) [Acarbose, reference compound]
Reply | 5.34

###

Answer each item with its documented pIC50.
target: rat intestinal α-glucosidase; assay: Rat intestinal α-glucosidase inhibitory activity; format: biochemical; conditions: substrate maltose; IC50 > 1000 μM = inactive; read-out: α-Glucosidase Maltose IC50
Scale: negative log10 of molar concentration, which is what pIC50 denotes.

Ask | Kindly state the measured pIC50 obtained for C=CC(C)(C)c1cc(O)c2oc3c4c(ccc3c(=O)c2c1O)[C@H](O)[C@H](O)C(C)(C)O4 [Compound 5, garcigerin A] with rat intestinal α-glucosidase.
Reply | 4.04

Ask | Let us now turn to C=CC(C)(C)c1cc(O)c2oc3c(O)cccc3c(=O)c2c1O [Compound 3, 12b-hydroxy-des-D-garcigerrin A]
Reply | 3.96

Ask | Let us now turn to C=CC(C)(C)c1cc(O)c2oc3c4c(ccc3c(=O)c2c1O)C=CC(C)(C)O4 [Compound 4, garciniaxanthone B]
Reply | 3.86

Ask | Let us now turn to C[C@H]1O[C@H](O[C@H]2[C@H](O)[C@@H](O)[C@@H](O[C@H]3[C@H](O)[C@@H](O)C(O)O[C@@H]3CO)O[C@@H]2CO)[C@H](O)[C@@H](O)[C@@H]1N[C@H]1C=C(CO)[C@@H](O)[C@H](O)[C@H]1O (some centres unmarked) [Acarbose, reference compound]
Reply | 5.47
